Please respond with reported Reduction in Blood Glucose for every item in the list.
System: normal male Wistar rats
Test: Intravenous insulin tolerance test (IVITT)
Format: in vivo, rat
Conditions: 45 min; 5 μmol/kg i.v., 0.1 U insulin/kg
Ends that are not written are not given here.

substance="Leu-Ser-Arg-Leu-Tyr-Asu-Asn-Ala (LSRLYDNA-NH2; not fully specified; printed as Leu-Ser-Arg-Leu-Tyr-Asu-Asn-Ala) [Peptide 10]" experimental_system="normal male Wistar rats" test_value="1.62 ± 0.18 mmol/L"

For every item below, please supply its Reduction in Blood Glucose.
1. Arg-Leu-Phe-Asu-Asn-Ala (RLFDNA-NH2) [Peptide 6]
2. Leu-Ser-Lys-Leu-Phe-Asu-Asn-Ala (LSKLFDNA-NH2; not fully specified; printed as Leu-Ser-Lys-Leu-Phe-Asu-Asn-Ala) [Peptide 8]
3. Leu-Ser-Arg-Leu-Gly-Asu-Asn-Ala (LSRLGDNA-NH2; not fully specified; printed as Leu-Ser-Arg-Leu-Gly-Asu-Asn-Ala) [Peptide 11]

Solution:
["1.50 ± 0.15 mmol/L", "1.92 ± 0.17 mmol/L", "1.08 ± 0.08 mmol/L"]
